Target: Human erythrocyte AChE (Homo sapiens)
Construct: AChE from human erythrocytes was used; purchased Sigma-Aldrich; host or cells: human erythrocytes
Sequence (P22303 32-617 isoform P22303-2 limits assumed): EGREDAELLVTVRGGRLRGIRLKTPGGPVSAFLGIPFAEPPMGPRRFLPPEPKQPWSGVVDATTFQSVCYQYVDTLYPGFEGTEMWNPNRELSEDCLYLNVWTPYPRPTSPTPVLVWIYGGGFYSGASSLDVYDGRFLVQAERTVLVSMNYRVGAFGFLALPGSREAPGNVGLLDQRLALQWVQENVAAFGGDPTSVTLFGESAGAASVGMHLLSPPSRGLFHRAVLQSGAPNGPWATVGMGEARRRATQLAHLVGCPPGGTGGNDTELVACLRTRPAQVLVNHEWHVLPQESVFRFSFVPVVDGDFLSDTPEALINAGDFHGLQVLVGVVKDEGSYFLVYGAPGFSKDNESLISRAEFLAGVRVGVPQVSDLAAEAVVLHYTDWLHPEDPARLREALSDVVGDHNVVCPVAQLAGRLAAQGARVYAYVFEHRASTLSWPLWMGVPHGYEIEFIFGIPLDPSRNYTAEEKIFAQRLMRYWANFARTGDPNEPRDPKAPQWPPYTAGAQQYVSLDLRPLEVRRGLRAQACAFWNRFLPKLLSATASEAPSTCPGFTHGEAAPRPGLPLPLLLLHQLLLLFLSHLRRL
Assay: biochemical
Details: mean ± SEM, n = 3; n.a. = not active; read-out: Human Erythrocyte AChE, IC50
Experimental Endpoint: pIC50
// pIC50: -log10(molar conc.)

What does the record list as pIC50 for CC(C)(C)c1cc(C=NCCNc2c3c(nc4ccccc24)CCC3)cc(C(C)(C)C)c1O [Compound 7a] ?
5.31

What does the record list as pIC50 for CC(C)(C)c1cc(C=NCCNc2c3c(nc4ccccc24)CCCC3)cc(C(C)(C)C)c1O [Compound 7b] ?
5.22

What does the record list as pIC50 for CC(C)(C)c1cc(C=NCCNc2c3c(nc4ccccc24)CCCCCC3)cc(C(C)(C)C)c1O [Compound 7d] ?
4.35

What does the record list as pIC50 for CC(C)(C)c1cc(C=NCCNc2c3c(nc4ccccc24)CCCCC3)cc(C(C)(C)C)c1O [Compound 7c] ?
5.39
